# assaySummary: Ex vivo biodistribution in PC-3 tumor-bearing mice
# conditionDescription: mouse, PC-3 tumor, Uptake in PC-3 tumor, 24 h post-injection
Numbered stars: 1 amine (or outer) side, 2 acyl side, 3 side chain; on linkers, the order of the positions; unused ones are H or OH. Square brackets hold non-standard residues; d marks the D form. Peptide text beside a SMILES is read from it. * marks the point of attachment. DOTA = O=C(O)CN1CCN(CC(=O)O)CCN(CC(=O)*)CCN(CC(=O)O)CC1; NMeH = CN[C@@H](Cc1c[nH]cn1)C(=O)O; X1 = O=C(CN1CCC(N[*:1])CC1)[*:2]; Tle = CC(C)(C)[C@H](N)C(=O)O; Thz = O=C(O)[C@@H]1CSCN1
measuredParameter: tissue uptake at 24 h (%ID/g)
Lab book: enter the figure in %ID/g, no units written.

[[record]]
compound = "CC(C)C[C@@H](CN1CSC[C@H]1C(N)=O)NC(=O)[C@H](Cc1cnc[nH]1)NC(=O)CN(C)C(=O)[C@@H](NC(=O)[C@H](C)NC(=O)[C@H](Cc1c[nH]c2ccccc12)NC(=O)[C@H](CCC(N)=O)NC(=O)[C@@H](Cc1ccccc1)NC(=O)CN1CCC(NC(=O)CN2CCN(CC(=O)O)CCN(CC(=O)O)CCN(CC(=O)O)CC2)CC1)C(C)C [[^177Lu]Lu-TacsBOMB5, metal not drawn]"
recordedresult = 1.77

[[record]]
compound = "CC(C)C[C@H](NC(=O)[C@H](Cc1cnc[nH]1)N(C)C(=O)CNC(=O)[C@@H](NC(=O)[C@H](C)NC(=O)[C@H](Cc1c[nH]c2ccccc12)NC(=O)[C@H](Cc1c[nH]cn1)NC(=O)[C@@H](Cc1ccccc1)NC(=O)CN1CCC(NC(=O)CN2CCN(CC(=O)O)CCN(CC(=O)O)CCN(CC(=O)O)CC2)CC1)C(C)(C)C)C(=O)N1CSC[C@H]1C(N)=O [[^177Lu]Lu-LW01142, metal not drawn] ({DOTA}-[X1][dF]HWA[Tle]G[NMeH]L[Thz]-NH2)"
recordedresult = 7.07


Kindly review the next compound as well.
**Q:** Recorded tissue uptake at 24 h for CC(C)C[C@H](NC(=O)[C@H](Cc1cnc[nH]1)N(C)C(=O)CNC(=O)[C@@H](NC(=O)[C@H](C)NC(=O)[C@H](Cc1c[nH]c2ccccc12)NC(=O)[C@H](CCC(N)=O)NC(=O)[C@@H](Cc1ccccc1)NC(=O)CN1CCC(NC(=O)CN2CCN(CC(=O)O)CCN(CC(=O)O)CCN(CC(=O)O)CC2)CC1)C(C)(C)C)C(=O)N1CSC[C@H]1C(N)=O [[^177Lu]Lu-LW01110, metal not drawn] , please?
**A:** 6.9

---

# assaySummary: Ex vivo biodistribution in PC-3 tumor-bearing mice
# conditionDescription: male, NOD.Cg-Rag1^tm1Mom Il2rg^tm1Wjl/SzJ (NRG), mouse, tumor/blood, total radioactivity, Tumor/blood uptake ratio, 4 h post-injection
Numbered stars: 1 amine (or outer) side, 2 acyl side, 3 side chain; on linkers, the order of the positions; unused ones are H or OH. Square brackets hold non-standard residues; d marks the D form. Peptide text beside a SMILES is read from it. * marks the point of attachment. DOTA = O=C(O)CN1CCN(CC(=O)O)CCN(CC(=O)*)CCN(CC(=O)O)CC1; NMeH = CN[C@@H](Cc1c[nH]cn1)C(=O)O; X1 = O=C(CN1CCC(N[*:1])CC1)[*:2]; Tle = CC(C)(C)[C@H](N)C(=O)O; Thz = O=C(O)[C@@H]1CSCN1
measuredParameter: tissue to tissue ratio at 4 h
Would you mind answering with just the numeric figure?

**Q:** Could you tell me which tissue to tissue ratio at 4 h is on file for CC(C)C[C@H](NC(=O)[C@H](Cc1cnc[nH]1)N(C)C(=O)CNC(=O)[C@@H](NC(=O)[C@H](C)NC(=O)[C@H](Cc1c[nH]c2ccccc12)NC(=O)[C@H](Cc1c[nH]cn1)NC(=O)[C@@H](Cc1ccccc1)NC(=O)CN1CCC(NC(=O)CN2CCN(CC(=O)O)CCN(CC(=O)O)CCN(CC(=O)O)CC2)CC1)C(C)(C)C)C(=O)N1CSC[C@H]1C(N)=O [[^177Lu]Lu-LW01142, metal not drawn] ({DOTA}-[X1][dF]HWA[Tle]G[NMeH]L[Thz]-NH2) ?
**A:** 162

**Q:** Queued: CC(C)C[C@H](NC(=O)[C@H](Cc1cnc[nH]1)N(C)C(=O)CNC(=O)[C@@H](NC(=O)[C@H](C)NC(=O)[C@H](Cc1c[nH]c2ccccc12)NC(=O)[C@H](CCC(N)=O)NC(=O)[C@@H](Cc1ccccc1)NC(=O)CN1CCC(NC(=O)CN2CCN(CC(=O)O)CCN(CC(=O)O)CCN(CC(=O)O)CC2)CC1)C(C)(C)C)C(=O)N1CSC[C@H]1C(N)=O [[^177Lu]Lu-LW01110, metal not drawn]
**A:** 234
